- Tested on: Mtb strain resistant to Isoniazid ATCC 35822
- test_summary: microbe, parasite or virus in culture
- Format: cell-based, Mycobacterium tuberculosis
- test_settings: Mycobacterium tuberculosis, ATCC35822, read-out: Activity against Mtb strain resistant to Isoniazid ATCC 35822
assay_endpoint: MIC (mg/L)
Please reply with the bare figure in mg/L and do not write the unit itself.

For orientation, consider the following solved cases.
* CCNc1n[n+]([O-])c2cc3c(cc2[n+]1[O-])CCCC3 | 1.25
* [O-][n+]1nc(N2CCCCC2)[n+]([O-])c2cc3c(cc21)CCC3 | 0.15
* CN(CCc1ccccc1)c1n[n+]([O-])c2cc3c(cc2[n+]1[O-])CCC3 | 0.07
* CS(=O)(=O)N1CCN(c2n[n+]([O-])c3cc4c(cc3[n+]2[O-])CCC4)CC1 | 2.5
* O=S1(=O)CCN(c2n[n+]([O-])c3cc4c(cc3[n+]2[O-])CCC4)CC1 | 2.5

What value of measured MIC is listed for [O-][n+]1nc(NC2CCC2)[n+]([O-])c2cc3c(cc21)CCC3 ?
1.25

What value of measured MIC is listed for CC1CCCCN1c1n[n+]([O-])c2cc3c(cc2[n+]1[O-])CCC3 (stereo not shown) ?
0.31

What value of measured MIC is listed for CC(C)(C)Nc1n[n+]([O-])c2ccccc2[n+]1[O-] ?
2.5

###

Form field: MIC (one value per entry).
- Test system: Mtb strain resistant to Isoniazid ATCC 35822
- test_summary: microbe, parasite or virus in culture
- Type: cell-based, Mycobacterium tuberculosis
- test_settings: Mycobacterium tuberculosis, ATCC35822, read-out: Activity against Mtb strain resistant to Isoniazid ATCC 35822
Please reply with the bare figure in µg/mL and do not write the unit itself.

Request: MIC, test system Mtb strain resistant to Isoniazid ATCC 35822, entry [O-][n+]1nc(N2CCCC2)[n+]([O-])c2ccccc21
0.31

Request: MIC, test system Mtb strain resistant to Isoniazid ATCC 35822, entry [O-][n+]1nc(N2CCCC2)[n+]([O-])c2cc3c(cc21)CCC3
0.31

Request: MIC, test system Mtb strain resistant to Isoniazid ATCC 35822, entry CCN(CC)c1n[n+]([O-])c2ccccc2[n+]1[O-]
0.31

Request: MIC, test system Mtb strain resistant to Isoniazid ATCC 35822, entry [O-][n+]1nc(NC2CCC2)[n+]([O-])c2cc3c(cc21)CCCC3
2.5

Request: MIC, test system Mtb strain resistant to Isoniazid ATCC 35822, entry [O-][n+]1nc(NC2CC3CCC2C3)[n+]([O-])c2cc3c(cc21)CCCC3 (centres unmarked)
2.5

Request: MIC, test system Mtb strain resistant to Isoniazid ATCC 35822, entry CCNc1n[n+]([O-])c2cc3c(cc2[n+]1[O-])CCC3
2.5
